Target: Human recombinant PDE2A (hPDE2A) (Homo sapiens, UniProt O00408)
Construct: His tag (inferred from metal chelate purification); made in house; host or cells: Sf9 insect cells (baculovirus)
Sequence (O00408 whole entry): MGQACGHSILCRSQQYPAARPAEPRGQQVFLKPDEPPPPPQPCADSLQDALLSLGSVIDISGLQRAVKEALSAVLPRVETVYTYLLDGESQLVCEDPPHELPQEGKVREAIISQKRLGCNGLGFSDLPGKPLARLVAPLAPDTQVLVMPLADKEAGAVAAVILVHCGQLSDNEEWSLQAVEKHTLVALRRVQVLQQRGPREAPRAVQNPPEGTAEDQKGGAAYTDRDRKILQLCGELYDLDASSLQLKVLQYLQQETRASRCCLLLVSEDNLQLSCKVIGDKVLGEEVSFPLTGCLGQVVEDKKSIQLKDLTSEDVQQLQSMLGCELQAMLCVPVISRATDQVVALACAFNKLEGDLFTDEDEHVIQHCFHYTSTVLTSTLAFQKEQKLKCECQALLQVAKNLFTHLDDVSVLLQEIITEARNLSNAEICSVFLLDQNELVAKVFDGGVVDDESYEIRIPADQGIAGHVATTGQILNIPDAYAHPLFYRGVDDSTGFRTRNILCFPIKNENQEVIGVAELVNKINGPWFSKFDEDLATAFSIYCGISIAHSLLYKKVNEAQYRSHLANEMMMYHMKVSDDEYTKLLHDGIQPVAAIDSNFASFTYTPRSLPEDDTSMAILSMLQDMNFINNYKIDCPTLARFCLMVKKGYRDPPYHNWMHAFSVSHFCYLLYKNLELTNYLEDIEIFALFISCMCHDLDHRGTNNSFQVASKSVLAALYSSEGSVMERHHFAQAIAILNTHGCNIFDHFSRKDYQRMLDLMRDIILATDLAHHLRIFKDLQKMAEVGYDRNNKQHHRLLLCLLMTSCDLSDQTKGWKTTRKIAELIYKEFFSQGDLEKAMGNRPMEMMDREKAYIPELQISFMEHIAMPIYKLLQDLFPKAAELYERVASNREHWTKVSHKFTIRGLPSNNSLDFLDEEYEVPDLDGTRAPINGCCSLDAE
Assay: In vitro assay PDE2A (SPA, 3H-cGMP hydrolysis)
Type: biochemical
Settings: read-out: hPDE2A pIC50 (converted)
Field: IC50. Provide a value for each of the molecules that follow.

C[C@@H]1CCN(C(=O)c2ccc3cnccc3c2)C[C@H]1c1cc(C(F)F)nc2ncnn12 :: 2.14 nM
Cc1cnc(C(=O)N2[C@H]3CC[C@H](c4cc(C(F)F)nc5ncnn45)[C@@H]2CC3)cc1C :: 63.1 nM

Parameters: items (list). Returns: IC50 for each item.
1. Cc1nc(C)c(C(=O)N2CC[C@@H](C)[C@H](c3cc(C(F)F)nc4ncnn34)C2)s1
2. Cc1c(C(=O)N2[C@H]3CC[C@H](c4cc(C(F)F)nc5ncnn45)[C@@H]2CC3)oc2ccccc12
3. Cc1cc(C(=O)N2CC[C@@H](C)[C@](F)(c3cc(C(F)F)nc4ncnn34)C2)cc(C)n1
4. C[C@@H]1CCN(C(=O)c2cnc3ccccc3c2O)C[C@H]1c1cc(C(F)F)nc2ncnn12
5. C[C@@H]1CCN(C(=O)c2cccc3c2OC(F)(F)O3)C[C@H]1c1cc(C(F)F)nc2ncnn12
6. Cc1cc(C(=O)N2[C@H]3CC[C@H](c4cc(C(F)F)nc5ncnn45)[C@@H]2CC3)c(F)cn1
7. Cc1ncoc1C(=O)N1CC[C@@H](C)[C@H](c2cc(C(F)F)nc3ncnn23)C1

Output:
1: 105 nM; 2: 2.34 nM; 3: 33.9 nM; 4: 37.2 nM; 5: 7.24 nM; 6: 50.1 nM; 7: 58.9 nM

Parameters: items (list). Returns: IC50 for each item.
1. Cc1ccc(F)c(C(=O)N2CC[C@@H](C)[C@@H](c3cc(C(F)F)nc4ncnn34)C2)n1
2. COc1cc(C(=O)N2CC[C@@H](C)[C@H](c3cc(C(F)F)nc4ncnn34)C2)cc(Cl)n1
3. C[C@@H]1CCN(C(=O)c2cc(Cl)nc(Cl)c2F)C[C@H]1c1cc(C(F)F)nc2ncnn12
4. C[C@]1(c2cc(C(F)F)nc3ncnn23)CCCN(C(=O)c2ccc3c(ccn3CCF)c2)C1 (single isomer, unassigned)

Output:
["282 nM", "0.912 nM", "1.86 nM", "97.7 nM"]
